molecular target: rhTDO (recombinant human TDO) (Homo sapiens); test: Enzyme assay using rhTDO (rate of kynurenine production); format: biochemical; settings: 2 h; final concentration of the compound 10 μM; rate relative to reaction without compound; read-out: rhTDO-mediated kynurenine production
Sequence (P48775 whole entry): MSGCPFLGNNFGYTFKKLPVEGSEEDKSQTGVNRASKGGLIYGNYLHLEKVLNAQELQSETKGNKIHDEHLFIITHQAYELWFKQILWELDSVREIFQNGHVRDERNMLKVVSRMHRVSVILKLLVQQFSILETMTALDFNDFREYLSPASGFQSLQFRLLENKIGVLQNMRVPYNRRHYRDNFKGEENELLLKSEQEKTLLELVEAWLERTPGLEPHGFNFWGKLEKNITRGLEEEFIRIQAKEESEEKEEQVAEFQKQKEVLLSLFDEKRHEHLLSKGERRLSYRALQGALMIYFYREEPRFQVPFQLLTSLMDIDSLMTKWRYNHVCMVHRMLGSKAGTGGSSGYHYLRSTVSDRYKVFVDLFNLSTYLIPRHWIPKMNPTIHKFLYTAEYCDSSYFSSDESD
Where a name gives a salt, the structure may show the parent alone.
Just a reminder that ties go to not met: only remaining activity at 10 µM strictly below 40% counts as met.

Check out these entries, answers already filled in.
> print(dat)
                                    compound  class.label
 1  N=C(N)SCc1ccccc1CC(=O)NCCc1ccc(Cl)c(Cl)c1 [Compound 70, hydrobromide]          met
 2  Fc1ccc(CN2CN=C(SCc3cc(Cl)c(Cl)cc3CSC3=NCN(Cc4ccc(F)c(Cl)c4)CN3)NC2)cc1Cl          met
 3  Clc1ccc(CCN2CN=C(SCc3ccccc3CSC3=NCN(CCc4ccc(Cl)cc4)CN3)NC2)cc1          met
 4  N=C(N)SCc1ccccc1CC(=O)NCCCCc1ccccc1 [Compound 72, hydrobromide]      not met
 5  N#Cc1ccc(CNC(=O)c2ccc(Br)cc2C[Se]C(=N)N)cc1 [Compound 113, hydrobromide]      not met
 6  Cc1ccc(CSC(=N)N)c(CSC(=N)N)c1 [Compound 12, dihydrobromide]          met
 7  N#Cc1ccc(CNC(=O)c2ccc(Br)cc2CS/C(N)=N/c2ccc(Br)cc2)cc1 [Compound 87, hydrobromide]      not met
 8  N=C(N)SCc1ccccc1CC(=O)NCCc1ccccc1Cl [Compound 66, hydrobromide]      not met
 9  CNC(=O)Cc1ccccc1CS/C(N)=N/c1ccc(Br)cc1 [Compound 79, hydrobromide]          met
10  N=C(N)[Se]Cc1ccc(Cl)cc1C[Se]C(=N)N [Compound 109, dihydrobromide]      not met

Below 40% on remaining activity at 10 µM? Entry N#Cc1ccc(CNC(=O)c2ncccc2CSC(=N)N)cc1 [Compound 99, hydrobromide]
not met

Below 40% on remaining activity at 10 µM? Entry "Clc1ccccc1CCN1CN=C(SCc2ccccc2CSC2=NCN(CCc3ccccc3Cl)CN2)NC1"
not met

Below 40% on remaining activity at 10 µM? Entry "Brc1cccc(CCN2CN=C(SCc3ccccc3CSC3=NCN(CCc4cccc(Br)c4)CN3)NC2)c1"
not met

----------
target: TDO in A172 cells (Homo sapiens, UniProt P48775); construct: endogenous in cells; host or cells: A172 cells; test: TDO cell-based assay, kynurenine production in A172 cells; details: A 172; final concentration of the compound 10 μM; rate relative to culture without compound
Sequence (P48775 whole entry): as above
Structures can show the parent of a compound that is named as a salt.
Documented remaining activity at 10 µM across a set of compounds
Your answer should be a plain number; it is taken to be in %.

The examples below pair each entry with its known result.
> print(dat)
                                   compound            measured.property  units.label  reported.result
1  CNC(=N)SCc1ccccc1CSC(=N)NC [Compound 11, dihydrochloride]  remaining activity at 10 µM            %               19
2  Br.N#Cc1ccc(CNC(=O)c2ccc(Br)cc2CSC(=N)N)cc1 [Compound 76, hydrobromide]  remaining activity at 10 µM            %               24
3  N/C(=N\c1ccc(F)c(Cl)c1)SCc1ccccc1CS/C(N)=N/c1ccc(F)c(Cl)c1 [Compound 122, dihydrobromide]  remaining activity at 10 µM            %                7
4  Fc1ccc(CN2CN=C(SCc3ccccc3CSC3=NCN(Cc4ccc(F)c(F)c4)CN3)NC2)cc1F [Compound 43]  remaining activity at 10 µM            %               -2
5  FC(F)(F)c1ccc(CCN2CN=C(SCc3ccccc3CSC3=NCN(CCc4ccc(C(F)(F)F)cc4)CN3)NC2)cc1 [Compound 142]  remaining activity at 10 µM            %                6
6  N/C(=N\c1ccc(Cl)cc1)SCc1cc(Cl)c(Cl)cc1CS/C(N)=N/c1ccc(Cl)cc1 [Compound 123, dihydrobromide]  remaining activity at 10 µM            %                4
7  Cc1ccc(/N=C(\N)SCc2cc(Cl)c(Cl)cc2CS/C(N)=N/c2ccc(C)cc2)cc1 [Compound 138, dihydrobromide]  remaining activity at 10 µM            %                0
8  CNC(=O)c1ccccc1CSC(=N)N [Compound 92, hydrobromide]  remaining activity at 10 µM            %               81

Provide measured remaining activity at 10 µM value, entry: Fc1ccc(CN2CN=C(SCc3cc(Cl)c(Cl)cc3CSC3=NCN(Cc4ccc(F)c(Cl)c4)CN3)NC2)cc1Cl [Compound 139]
11

Provide measured remaining activity at 10 µM value, entry: CNC(=O)Cc1ccccc1CS/C(N)=N/c1ccc(F)c(Cl)c1 [Compound 80, hydrobromide]
45
